# Study Target: sigma-2 binding site (Cavia porcellus, UniProt H0V073)
# Construct: Guinea pig whole membrane preparations (P2 microsomal fraction); from tissue; host or cells: guinea pig membranes (P2 microsomal fraction), as described by Weber et al; brain inferred from the sister test b489
# Sequence (H0V073 1-176): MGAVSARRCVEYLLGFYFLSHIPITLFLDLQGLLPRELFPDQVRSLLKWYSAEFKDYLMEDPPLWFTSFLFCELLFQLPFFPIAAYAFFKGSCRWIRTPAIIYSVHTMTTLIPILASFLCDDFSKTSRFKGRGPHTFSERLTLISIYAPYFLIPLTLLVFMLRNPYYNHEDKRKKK
# Assay Name: biochemical
# Set-up: species or system guinea pig
# Details: SIGMA-2 KI vs. 3H-DTG + P[…]
Property: pKi
Field pKi (float): negative decimal logarithm of the concentration in molar.

Some compounds with known pKi results, for comparison:
> print(dat)
                         chemical.structure  result
1          C[C@@H](Cc1ccccc1)NCCCCCc1ccccc1    7.73
2  C[C@@H](Cc1ccccc1)N(CCCc1ccccc1)Cc1ccccc1    6.33

We now examine a further compound.
query: Quick check: pKi of C[C@@H](Cc1ccccc1)NCCCCc1ccccc1 ?
result: 7.45

* * *

# Study Target: 5-HT1A receptor (Rattus norvegicus)
# Sequence (P19327 whole entry): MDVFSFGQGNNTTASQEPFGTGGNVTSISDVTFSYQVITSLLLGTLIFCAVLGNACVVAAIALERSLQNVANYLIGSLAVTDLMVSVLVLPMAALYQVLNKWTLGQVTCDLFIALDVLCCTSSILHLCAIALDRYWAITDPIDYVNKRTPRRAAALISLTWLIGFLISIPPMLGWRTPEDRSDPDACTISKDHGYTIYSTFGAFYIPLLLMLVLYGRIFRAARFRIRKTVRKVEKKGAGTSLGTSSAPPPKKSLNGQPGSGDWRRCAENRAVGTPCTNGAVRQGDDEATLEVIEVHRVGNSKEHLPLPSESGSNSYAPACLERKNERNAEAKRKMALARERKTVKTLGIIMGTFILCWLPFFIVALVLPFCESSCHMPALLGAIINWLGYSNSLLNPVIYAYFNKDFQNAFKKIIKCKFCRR
# Assay Name: biochemical
# Assay type: binding
# Parameters: 47: 529-540 (1986); from tissue; host or cells: brain tissue, inferred from the cited method (rat frontal cortex)
// reported IC50 for each item listed
# unit: nM | format: bare number

> print(dat)
                chemical.structure                         study.target  property  unit.annotation  result
1  C[C@@H](Cc1ccccc1)NCCCCc1ccccc1  5-HT1A receptor (Rattus norvegicus)      IC50               nM     278

Moving on to another compound below.
query: Fill in: IC50 of C[C@@H](Cc1ccccc1)NCCCCCc1ccccc1 is ___
result: 594

* * *

# Study Target: sigma-1 binding site (Cavia porcellus, UniProt Q60492)
# Construct: Guinea pig whole membrane preparations (P2 microsomal fraction); from tissue; host or cells: guinea pig membranes (P2 microsomal fraction), as described by Weber et al; brain inferred from the sister test b489
# Sequence (Q60492 whole entry): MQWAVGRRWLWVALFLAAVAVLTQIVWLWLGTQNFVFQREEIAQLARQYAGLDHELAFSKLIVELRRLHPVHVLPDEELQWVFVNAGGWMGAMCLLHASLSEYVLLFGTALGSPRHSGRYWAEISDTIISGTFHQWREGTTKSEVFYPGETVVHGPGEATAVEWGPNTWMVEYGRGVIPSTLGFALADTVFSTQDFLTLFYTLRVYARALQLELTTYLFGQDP
# Assay Name: biochemical
# Set-up: species or system guinea pig
# Details: Example 8
// classify: if (sigma-2/sigma-1 selectivity < 50) Satisfied else Not satisfied

Record excerpt, results attached:
> print(dat)
                  compound     class.name
1  c1ccc(CCCCCN2CCCCC2)cc1  Not satisfied
2       CN(C)CCCCCc1ccccc1  Not satisfied
3       CN(C)CCCCCC1CCCCC1  Not satisfied

From here, focus on the item given below.
query: Does the reported sigma-2/sigma-1 selectivity of NCCCCCC1CCCCC1.O=C(O)C(=O)O [Compound 126, 5-Cyclohexylpentylamine Hydrogen Oxalate] stay below 50?
result: Satisfied

* * *

# Study Target: 5-HT1A receptor (Rattus norvegicus)
# Assay Name: biochemical
# Type: binding
# Parameters: 47: 529-540 (1986); from tissue; host or cells: brain tissue, inferred from the cited method (rat frontal cortex)
# Details: Table 5; read-out: 5-HT1A IC50
# Method: Further sigma receptor binding assays against [^3 H]DTG and 5HT-1A binding assays were conducted according to the procedure outlined in the previous examples.
Property: IC50 (nM)
Report only the number, with the unit nM understood.

query: Entry CC(Cc1cccc(Br)c1)NCCCc1ccccc1 (racemic) has what IC50?
result: 108

* * *

# Study Target: 5-HT1A receptor (Rattus norvegicus)
# Assay Name: biochemical
# Type: binding
# Set-up: 47: 529-540 (1986); from tissue; host or cells: brain tissue, inferred from the cited method (rat frontal cortex)
# Details: Table 5
Listing: Ratio 5-HT1A /σ of selected molecules
Reply with just the number.

Here are 3 molecules together with their reported answers.
> print(dat)
                                   molecule  result
1  Clc1cccc(N2CCN(CCCc3ccccc3)CC2)c1 [Compound 33]     2.6
2  c1ccc(CCCNC2Cc3ccccc3C2)cc1 [Compound 14]     5.4
3  C[C@H](N[C@@H](C)Cc1ccccc1)c1ccccc1 [Compound 26]     3.5

query: Ratio 5-HT1A /σ of C[C@H](Cc1ccccc1)NCC#Cc1ccccc1 [Compound 25] on 5-HT1A receptor (Rattus norvegicus)?
result: 7.3

query: Which measured Ratio 5-HT1A /σ belongs to C[C@@H](N)Cc1ccc([N+](=O)[O-])cc1 [Compound 30] , tested on 5-HT1A receptor (Rattus norvegicus)?
result: 2.6

The measurements presented in this section are drawn from patent US6057371A.
